Give Degradation assay (Degradation %) 10 μM for every item shown.
- study target: MLKL (Homo sapiens, UniProt Q8NB16)
- Sequence (Q8NB16 whole entry): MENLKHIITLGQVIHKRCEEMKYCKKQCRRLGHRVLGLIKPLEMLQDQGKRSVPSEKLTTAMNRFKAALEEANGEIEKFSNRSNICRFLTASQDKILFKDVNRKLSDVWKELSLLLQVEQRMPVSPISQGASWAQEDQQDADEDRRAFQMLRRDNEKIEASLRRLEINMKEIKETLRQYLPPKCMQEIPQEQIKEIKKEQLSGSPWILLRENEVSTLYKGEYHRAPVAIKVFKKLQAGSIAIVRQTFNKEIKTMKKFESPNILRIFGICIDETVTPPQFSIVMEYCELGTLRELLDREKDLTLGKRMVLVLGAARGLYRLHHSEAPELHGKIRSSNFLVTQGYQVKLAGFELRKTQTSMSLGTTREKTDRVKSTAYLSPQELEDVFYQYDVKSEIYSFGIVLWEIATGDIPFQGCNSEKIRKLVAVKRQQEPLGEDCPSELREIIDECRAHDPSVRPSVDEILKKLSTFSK
- assay method text: MLKL degradation assay in HepG2 cell line (western blot)
- Format: cell-based
- Parameters: endogenous in cells; host or cells: HepG2 or HaCaT
- condition description: compound 10 μM; cell line not given
One number for each entry, in %.

| compound | study target | Degradation assay (Degradation %) 10 μM |
| --- | --- | --- |
| Nc1ncc(-c2cnn(C3CCN(CCCCCCCCCCNC(=O)C4CCN(c5ccc6c(c5)C(=O)N(C5CCC(=O)NC5=O)C6=O)CC4)CC3)c2)nc1C(=O)O[C@@H](C(=O)Nc1ccc(F)cc1)c1ccccc1 (stereo partly shown) [TDH-157] | MLKL (Homo sapiens, UniProt Q8NB16) | 64.73 |
| Nc1ncc(-c2ccc(N3CCN(CCOCCOCCNC(=O)COc4cccc5c4C(=O)N(C4CCC(=O)NC4=O)C5=O)CC3)nc2)nc1C(=O)OC(C(=O)Nc1ccc(F)cc1)c1ccccc1 (stereo not shown) [TDH-261] | MLKL (Homo sapiens, UniProt Q8NB16) | 42.25 |

Hi there! I need Degradation assay (Degradation %) 10 μM for each item below, if you can.
1. Nc1ncc(-c2cnn(C3CCN(CCCCCCNC(=O)C4CCN(c5ccc6c(c5)C(=O)N(C5CCC(=O)NC5=O)C6=O)CC4)CC3)c2)nc1C(=O)O[C@@H](C(=O)Nc1ccc(F)cc1)c1ccccc1 (stereo partly shown) [TDH-109]
2. COc1ccc(C(=O)N2CCC(CCN3CCC(CN4CCC(n5cc(-c6cnc(N)c(C(=O)O[C@@H](C(=O)Nc7ccc(F)cc7)c7ccccc7)n6)cn5)CC4)CC3)CC2)cc1N1CCC(=O)NC1=O [TDH-501]
3. Nc1ncc(-c2ccc(N3CCN(CC4CCN(C(=O)COc5cccc6c5C(=O)N(C5CCC(=O)NC5=O)C6=O)CC4)CC3)nc2)nc1C(=O)OC(C(=O)Nc1ccc(F)cc1)c1ccccc1 (stereo not shown) [TDH-255]
4. Nc1ncc(-c2cnn(C3CCN(CC4CCN(CC(=O)NC5CCN(c6cccc7c6C(=O)N(C6CCC(=O)NC6=O)C7=O)CC5)CC4)CC3)c2)nc1C(=O)OC(C(=O)Nc1ccc(F)cc1)c1ccccc1 (stereo not shown) [TDH-236]
5. Nc1ncc(-c2cnn(C3CCN(C(=O)c4cn(C5CCN(C(=O)CNc6ccc7c(c6)C(=O)N(C6CCC(=O)NC6=O)C7=O)CC5)cn4)CC3)c2)nc1C(=O)O[C@@H](C(=O)Nc1ccc(F)cc1)c1ccccc1 (stereo partly shown) [TDH-361]

Result:
[56.91, 96.40, 34.35, 27.8, 48.59]

Hi there! I need Degradation assay (Degradation %) 10 μM for each item below, if you can.
1. Nc1ncc(-c2cnn(C3CCN(CCOCCOCCOCCNC(=O)C4CN(c5cccc6c5C(=O)N(C5CCC(=O)NC5=O)C6=O)C4)CC3)c2)nc1C(=O)O[C@@H](C(=O)Nc1ccc(F)cc1)c1ccccc1 (stereo partly shown) [TDH-141]
2. Nc1ncc(-c2cnn([C@@H]3CCN(CCOCCOCCNC(=O)COc4ccc5c(c4)C(=O)N(C4CCC(=O)NC4=O)C5=O)C3)c2)nc1C(=O)OC(C(=O)Nc1ccc(F)cc1)c1ccccc1 (stereo partly shown) [TDH-270]
3. Nc1ncc(-c2cnn(C3CCN(CCCC4CCN(C(=O)CNc5ccc6c(c5)C(=O)N(C5CCC(=O)NC5=O)C6=O)CC4)CC3)c2)nc1C(=O)O[C@@H](C(=O)Nc1ccc(F)cc1)c1ccccc1 (stereo partly shown) [TDH-483]

Result:
[58.93, 39.14, 84.54]
